- Tested on: NNK/B(a)P-induced lung adenomas and adenocarcinomas
- Experimental setup: low dose (1.5 or 4 mmol/kg diet); preliminary
Quantity: Adenoma Incidence (%)

Below, 3 compounds whose answers are already recorded.
C[S+]([O-])CCCCN=C=S (stereo not shown) | 20/20 (100%)
CC(=O)N[C@@H](CSC(=S)NCCc1ccccc1)C(=O)O | 17/19 (89.47%)
CC(=O)NC(CSC(=S)NCCCC[S+](C)[O-])C(=O)O (stereo not shown) | 18/19 (94.74%)

The record that follows has no Adenoma Incidence (%) shown yet.
Ask: Form field: reported Adenoma Incidence (%) of S=C=NCCc1ccccc1 [PEITC, phenethyl isothiocyanate]
Result: 19/20 (95%)

The measured values listed here are drawn from patent US20060241178A1.
